target_desc: hOT7T175 (Homo sapiens, UniProt Q969F8)
Construct: expressed in transfected cells
Sequence (Q969F8 whole entry L364H): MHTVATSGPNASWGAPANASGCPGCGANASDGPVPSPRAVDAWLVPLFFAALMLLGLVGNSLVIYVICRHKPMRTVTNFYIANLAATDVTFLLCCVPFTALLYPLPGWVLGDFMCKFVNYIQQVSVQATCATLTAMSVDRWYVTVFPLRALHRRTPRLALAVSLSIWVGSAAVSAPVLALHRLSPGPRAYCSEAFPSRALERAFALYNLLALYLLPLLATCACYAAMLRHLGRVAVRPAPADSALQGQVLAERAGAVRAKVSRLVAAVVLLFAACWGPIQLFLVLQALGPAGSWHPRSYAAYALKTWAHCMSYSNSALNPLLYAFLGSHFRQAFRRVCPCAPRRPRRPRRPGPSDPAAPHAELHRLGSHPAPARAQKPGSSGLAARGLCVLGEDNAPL
protocol_details: Intracellular Ca ion level-increasing activity using FLIPR (180 seconds; specific activity to Metastin (1-54))
Format: cell-based
setup_conditions: hOT7T175/CHO, change in intracellular calcium ion level for 180 seconds, Tables 21-23
Starred links: 1 amine or outer side, 2 acyl side, 3 side chain; linkers in the order of their positions; H or OH if unused. Non-standard residues stand in square brackets, D forms with d. Residues, ends and D or L forms follow the SMILES beside them. X3 = O=C(CNC(=S)[C@H](Cc1ccccc1)N[*:1])[*:2]; Arg(Me) = CNC(=N)NCCC[C@H](N)C(=O)O; d4Pal = N[C@H](Cc1ccncc1)C(=O)O; Cha = N[C@@H](CC1CCCCC1)C(=O)O; azaGly = NNC(=O)O
Recorded intracellular Ca ion level-increasing activity [specific activity to Metastin (1-54)] for the following compounds
Just the number, please.

Here's what some known entries look like.
compound="CNC(=N)NCCC[C@H](NC(=O)[C@H](CC(C)C)NC(=O)NNC(=O)[C@H](Cc1ccccc1)NC(=O)[C@H](CO)NC(=O)[C@H](CC(N)=O)NC(=O)[C@H](CC1CCCCC1)NC(=O)[C@@H](CC(N)=O)NC(=O)[C@H](N)Cc1ccncc1)C(=O)N[C@@H](Cc1ccccc1)C(N)=O [Compound No. 306] (H-[d4Pal][dN][Cha]NSF[azaGly]L[Arg(Me)]F-NH2)" quantitative_readout=2
compound="CNC(=N)NCCC[C@H](NC(=O)[C@H](CC(C)C)NC(=O)NNC(=O)[C@H](Cc1ccccc1)NC(=O)[C@H](CO)NC(=O)[C@H](CC(N)=O)NC(=O)[C@@H](Cc1ccncc1)NC(=O)[C@H](N)Cc1ccc(O)cc1)C(=O)N[C@@H](Cc1ccccc1)C(N)=O [Compound No. 305] (H-[dY][d4Pal]NSF[azaGly]L[Arg(Me)]F-NH2)" quantitative_readout=5

Here's the next entry for you.
Briefly, intracellular Ca ion level-increasing activity [specific activity to Metastin (1-54)] measured for CNC(=N)NCCC[C@H](NC(=O)[C@H](CC(C)C)NC(=O)CNC(=S)[C@H](Cc1ccccc1)NC(=O)[C@H](CO)NC(=O)[C@H](CC(N)=O)NC(=O)[C@H](Cc1c[nH]c2ccccc12)NC(=O)[C@H](CC(N)=O)NC(=O)[C@H](N)Cc1ccc(O)cc1)C(=O)N[C@@H](Cc1ccccc1)C(N)=O [Compound No. 296] (H-[dY]NWNS[X3]L[Arg(Me)]F-NH2) : 3

* * *

Recorded Teststerone level in Blood for the following compounds
protocol_details: Blood testosterone level decreasing effect in mature male rat (2 mM peptide solution, ALZET osmotic pump)
Type: in vivo
setup_conditions: 2 mM peptide solution in distilled water, ALZET osmotic pump s.c., 6 days, Tables 28 and 29
Non-standard residues stand in square brackets, D forms with d. Residues, ends and D or L forms follow the SMILES beside them. *: point of attachment. Arg(Me) = CNC(=N)NCCC[C@H](N)C(=O)O; Hydrocinnamoyl = O=C(CCc1ccccc1)*; d4Pal = N[C@H](Cc1ccncc1)C(=O)O; azaGly = NNC(=O)O
Field: numeric (%). Do not append units.

Here's what some known entries look like.
compound=CNC(=N)NCCC[C@H](NC(=O)[C@H](CC(C)C)NC(=O)CNC(=O)[C@H](Cc1ccccc1)NC(=O)[C@H](CO)NC(=O)[C@H](CC(N)=O)NC(=O)[C@H](Cc1c[nH]c2ccccc12)NC(=O)[C@H](CC(N)=O)NC(=O)[C@H](N)Cc1ccc(O)cc1)C(=O)N[C@@H](Cc1ccccc1)C(N)=O result_unit=% quantitative_readout=31
compound="CNC(=N)NCCC[C@H](NC(=O)[C@H](CC(C)C)NC(=O)NNC(=O)[C@H](Cc1ccccc1)NC(=O)[C@H](CO)NC(=O)[C@H](CC(N)=O)NC(=O)[C@@H](Cc1ccncc1)NC(=O)[C@H](N)Cc1ccc(O)cc1)C(=O)N[C@@H](Cc1ccccc1)C(N)=O [Compound No. 305] (H-[dY][d4Pal]NSF[azaGly]L[Arg(Me)]F-NH2)" result_unit=% quantitative_readout=2
compound=CC(C)C[C@H](NC(=O)NNC(=O)[C@H](Cc1ccccc1)NC(=O)[C@H](CO)NC(=O)[C@H](CC(N)=O)NC(=O)[C@H](Cc1c[nH]c2ccccc12)NC(=O)[C@H](CC(N)=O)NC(=O)[C@@H](N)Cc1ccc(O)cc1)C(=O)N[C@@H](CCCNC(=N)N)C(=O)N[C@@H](Cc1ccccc1)C(N)=O result_unit=% quantitative_readout=12

Here's the next entry for you.
Briefly, Teststerone level in Blood measured for CNC(=N)NCCC[C@H](NC(=O)[C@H](CC(C)C)NC(=O)NNC(=O)[C@H](Cc1ccccc1)NC(=O)[C@H](CO)NC(=O)[C@H](CC(N)=O)NC(=O)CCc1ccccc1)C(=O)N[C@@H](Cc1ccccc1)C(N)=O [Compound No. 269] (Hydrocinnamoyl-NSF[azaGly]L[Arg(Me)]F-NH2) : 7
